All values here come from ChEMBL document CHEMBL1961873.

molecular target: Serine/threonine-protein kinase MRCK beta (Homo sapiens); details: at 1 µM;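 further: averaged inhibition values against MRCK beta, part of the GSK PKIS profiling dataset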
property: inhibition (%)
Write it as a number; the unit % goes unstated.

Below: 5 compounds and their reported inhibition.
{"smiles str": "Cc1cc(-c2ccco2)cc(C)c1/C=C/c1cncc(-c2nn[nH]n2)c1", "units label": "%", "inhibition": -0.72}
{"smiles str": "COc1cc2c(cc1Nc1nc(Nc3ccsc3C(N)=O)c3cc[nH]c3n1)N(C(=O)CN(C)C)CCC2", "units label": "%", "inhibition": -0.44}
{"smiles str": "COc1cccc(COc2cc(-n3cnc4ccccc43)sc2C(N)=O)c1", "units label": "%", "inhibition": 0.51}
{"smiles str": "CCn1c(-c2nonc2N)nc2c(C#CC(C)(C)O)nc(O[C@@H](CN)c3ccccc3)cc21", "units label": "%", "inhibition": 66.2}
{"smiles str": "CCn1c(-c2nonc2N)nc2c(C#CCN)ncc(OCCCN)c21", "units label": "%", "inhibition": 23.4}

Value of measured inhibition for the entry NS(=O)(=O)c1ccc(N/C=C2\C(=O)Nc3ccc4ncsc4c32)cc1 : 5.66

Value of measured inhibition for the entry NC(=O)c1sc(-n2cnc3cc(C(F)(F)F)ccc32)cc1OCc1ccccc1Br : 0.13

Value of measured inhibition for the entry CCn1c(-c2nonc2N)nc2c(C#CC(C)(C)O)ncc(OCC3CCNCC3)c21 : 21.1

====

Below is a list of entries, each paired with its recorded inhibition value.
molecular target: Insulin receptor (Homo sapiens) (UniProt P06213); settings: at 1 µM
Sequence (P06213 28-758 limits assumed): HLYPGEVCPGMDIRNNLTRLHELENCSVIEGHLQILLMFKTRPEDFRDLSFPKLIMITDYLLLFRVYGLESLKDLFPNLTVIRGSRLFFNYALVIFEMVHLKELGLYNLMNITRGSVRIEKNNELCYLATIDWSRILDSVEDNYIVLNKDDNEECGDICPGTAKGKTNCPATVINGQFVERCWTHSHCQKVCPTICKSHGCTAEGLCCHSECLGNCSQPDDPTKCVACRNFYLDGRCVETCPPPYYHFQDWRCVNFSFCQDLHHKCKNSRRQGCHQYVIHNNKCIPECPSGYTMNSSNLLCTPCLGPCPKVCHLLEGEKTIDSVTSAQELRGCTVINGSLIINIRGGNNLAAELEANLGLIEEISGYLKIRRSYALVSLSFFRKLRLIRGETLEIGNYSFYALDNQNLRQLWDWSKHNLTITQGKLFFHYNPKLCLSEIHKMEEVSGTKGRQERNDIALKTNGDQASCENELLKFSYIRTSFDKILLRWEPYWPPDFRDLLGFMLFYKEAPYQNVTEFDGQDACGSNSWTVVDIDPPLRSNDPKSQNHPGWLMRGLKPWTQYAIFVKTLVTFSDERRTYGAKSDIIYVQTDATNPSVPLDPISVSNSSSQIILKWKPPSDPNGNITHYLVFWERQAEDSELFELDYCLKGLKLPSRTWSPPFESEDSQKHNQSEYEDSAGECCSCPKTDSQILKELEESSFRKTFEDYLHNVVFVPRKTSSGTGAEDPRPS
Sequence (P06213 763-1382 limits assumed): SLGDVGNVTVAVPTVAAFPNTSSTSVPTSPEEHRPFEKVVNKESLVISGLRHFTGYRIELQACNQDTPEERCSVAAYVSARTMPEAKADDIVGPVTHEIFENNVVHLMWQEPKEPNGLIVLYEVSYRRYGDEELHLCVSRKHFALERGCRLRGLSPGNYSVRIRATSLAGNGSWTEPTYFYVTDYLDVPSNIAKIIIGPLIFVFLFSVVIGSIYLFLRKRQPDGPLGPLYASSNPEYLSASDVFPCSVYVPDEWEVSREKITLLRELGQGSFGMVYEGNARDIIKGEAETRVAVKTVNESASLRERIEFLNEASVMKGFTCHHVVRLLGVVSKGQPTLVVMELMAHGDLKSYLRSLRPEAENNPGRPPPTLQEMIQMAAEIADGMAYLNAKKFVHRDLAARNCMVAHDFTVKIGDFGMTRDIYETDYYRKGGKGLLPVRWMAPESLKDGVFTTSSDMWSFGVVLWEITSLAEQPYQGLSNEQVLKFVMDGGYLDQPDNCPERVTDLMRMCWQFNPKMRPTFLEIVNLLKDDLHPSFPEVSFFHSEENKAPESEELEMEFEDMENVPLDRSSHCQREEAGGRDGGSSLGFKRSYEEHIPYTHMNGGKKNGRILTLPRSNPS
Write it as a number; the unit % goes unstated.

{"smiles str": "CCn1c(-c2nonc2N)nc2c(C#CC(C)(C)O)ncc(OCC3CCNCC3)c21", "subject of test": "Insulin receptor (Homo sapiens) (UniProt P06213)", "inhibition / %": 1.72}
{"smiles str": "Fc1ccc(-c2ncn(C3CCNCC3)c2-c2ccnc(Oc3ccccc3)n2)cc1", "subject of test": "Insulin receptor (Homo sapiens) (UniProt P06213)", "inhibition / %": 3.05}
{"smiles str": "Nc1nonc1-c1nc2cnccc2n1C1CCCCC1", "subject of test": "Insulin receptor (Homo sapiens) (UniProt P06213)", "inhibition / %": -0.22}

Noted inhibition for CCn1c(-c2nonc2N)nc2c(C#CCN)ncc(OCCCN)c21 , tested on Insulin receptor (Homo sapiens) (UniProt P06213): -4.01

====

test system: Tyrosine-protein kinase ABL1 (Homo sapiens), P00519 [Y253F]; details: at 1 µM
property: inhibition (%)
Write it as a number; the unit % goes unstated.

Below: 3 compounds and their reported inhibition.
{"smiles str": "COc1cccc(-n2ncc3c(N/N=C/c4ccncc4)ncnc32)c1", "inhibition / %": 94.9}
{"smiles str": "COc1cc(C=NNc2ncnc3c2cnn3Cc2ccccc2)ccc1O", "inhibition / %": 90.8}
{"smiles str": "COc1cccc(COc2cc(-n3cnc4ccccc43)sc2C(N)=O)c1", "inhibition / %": 2.67}

Value of measured inhibition for the entry CCn1c(-c2nonc2N)nc2c(C#CCN)ncc(OCCCN)c21 : -2.94

Value of measured inhibition for the entry CCn1c(-c2nonc2N)nc2c(C#CC(C)(C)O)ncc(OCC3CCNCC3)c21 : 5.73

Value of measured inhibition for the entry Cc1cc(-c2ccco2)cc(C)c1/C=C/c1cncc(-c2nn[nH]n2)c1 : 4.15

Value of measured inhibition for the entry Nc1nonc1-c1nc2cnccc2n1C1CCCCC1 : 2.63

Value of measured inhibition for the entry CCn1c(-c2nonc2N)nc2c(C#CC(C)(C)O)nc(O[C@@H](CN)c3ccccc3)cc21 : 0.57

====

biological target: Ephrin type-B receptor 4 (Homo sapiens); conditions: at 1 µM;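 further: reported value is the mean percent inhibition of EPHB4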
property: inhibition (%)
Write it as a number; the unit % goes unstated.

Below: 6 molecules and their reported inhibition.
{"smiles str": "Nc1nonc1-c1nc2cnccc2n1C1CCCCC1", "inhibition [%]": -1.63}
{"smiles str": "Cc1cc(-c2ccco2)cc(C)c1/C=C/c1cncc(-c2nn[nH]n2)c1", "inhibition [%]": 2.02}
{"smiles str": "COc1cccc(COc2cc(-n3cnc4ccccc43)sc2C(N)=O)c1", "inhibition [%]": 1.33}
{"smiles str": "CCn1c(-c2nonc2N)nc2c(C#CCN)ncc(OCCCN)c21", "inhibition [%]": -2.62}
{"smiles str": "CCn1c(-c2nonc2N)nc2c(C#CC(C)(C)O)nc(O[C@@H](CN)c3ccccc3)cc21", "inhibition [%]": 1.16}
{"smiles str": "Fc1ccc(-c2ncn(C3CCNCC3)c2-c2ccnc(Oc3ccccc3)n2)cc1", "inhibition [%]": 1.66}

Value of measured inhibition for the entry NS(=O)(=O)c1ccc(N/C=C2\C(=O)Nc3ccc4ncsc4c32)cc1 : 8.11

Value of measured inhibition for the entry CCn1c(-c2nonc2N)nc2c(C#CC(C)(C)O)ncc(OCC3CCNCC3)c21 : -2.94

Value of measured inhibition for the entry COc1cc2c(cc1Nc1nc(Nc3ccsc3C(N)=O)c3cc[nH]c3n1)N(C(=O)CN(C)C)CCC2 : 1.55

Value of measured inhibition for the entry NC(=O)c1sc(-n2cnc3cc(C(F)(F)F)ccc32)cc1OCc1ccccc1Br : 1.65

====

Below is a list of entries, each paired with its recorded inhibition value.
molecular target: Insulin receptor-related protein (Homo sapiens); conditions: at 1 µM;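 further: each reported figure is the mean of the IRR inhibition readings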

Below: 5 compounds and their reported inhibition.
{"smiles str": "COc1cc(C=NNc2ncnc3c2cnn3Cc2ccccc2)ccc1O", "property": "inhibition", "value": "-4.41%"}
{"smiles str": "COc1cccc(-n2ncc3c(N/N=C/c4ccncc4)ncnc32)c1", "property": "inhibition", "value": "5.33%"}
{"smiles str": "NC(=O)c1sc(-n2cnc3cc(C(F)(F)F)ccc32)cc1OCc1ccccc1Br", "property": "inhibition", "value": "-0.33%"}
{"smiles str": "Nc1nonc1-c1nc2cnccc2n1C1CCCCC1", "property": "inhibition", "value": "-3.62%"}
{"smiles str": "CCn1c(-c2nonc2N)nc2c(C#CCN)ncc(OCCCN)c21", "property": "inhibition", "value": "0.07%"}

# evaluate next
Value of measured inhibition for the entry CCn1c(-c2nonc2N)nc2c(C#CC(C)(C)O)ncc(OCC3CCNCC3)c21 : 2.17%

====

target: Protein-tyrosine kinase 6 (Homo sapiens); conditions: at 0.1 µM
Description: GSK_PKIS: BRK mean inhibition at 0.1 uM [Nanosyn]
Below is a list of entries, each paired with its recorded inhibition value.
Write it as a number; the unit % goes unstated.

Noted inhibition for NS(=O)(=O)c1ccc(N/C=C2\C(=O)Nc3ccc4ncsc4c32)cc1 , tested on Protein-tyrosine kinase 6 (Homo sapiens): 2.1

Noted inhibition for CCn1c(-c2nonc2N)nc2c(C#CCN)ncc(OCCCN)c21 , tested on Protein-tyrosine kinase 6 (Homo sapiens): -6.06

Noted inhibition for Nc1nonc1-c1nc2cnccc2n1C1CCCCC1 , tested on Protein-tyrosine kinase 6 (Homo sapiens): -5.22

Noted inhibition for Cc1cc(-c2ccco2)cc(C)c1/C=C/c1cncc(-c2nn[nH]n2)c1 , tested on Protein-tyrosine kinase 6 (Homo sapiens): 0.11

Noted inhibition for CCn1c(-c2nonc2N)nc2c(C#CC(C)(C)O)nc(O[C@@H](CN)c3ccccc3)cc21 , tested on Protein-tyrosine kinase 6 (Homo sapiens): -1.39

Noted inhibition for COc1cccc(COc2cc(-n3cnc4ccccc43)sc2C(N)=O)c1 , tested on Protein-tyrosine kinase 6 (Homo sapiens): -0.05

Noted inhibition for CCn1c(-c2nonc2N)nc2c(C#CC(C)(C)O)ncc(OC[C@@H]3CCCN3)c21 , tested on Protein-tyrosine kinase 6 (Homo sapiens): 3.05

====

biological target: Tyrosine-protein kinase SYK (Homo sapiens) (UniProt P43405); conditions: at 1 µM
Description: GSK_PKIS: SYK mean inhibition at 1 uM [Nanosyn]
Below is a list of entries, each paired with its recorded inhibition value.
Write it as a number; the unit % goes unstated.

Below: 5 molecules and their reported inhibition.
{"smiles str": "CCn1c(-c2nonc2N)nc2c(C#CC(C)(C)O)nc(O[C@@H](CN)c3ccccc3)cc21", "units label": "%", "inhibition": 0.56}
{"smiles str": "NS(=O)(=O)c1ccc(-c2ccc3c(NC(=O)C4CC4)n[nH]c3c2)cc1", "units label": "%", "inhibition": -2.49}
{"smiles str": "NS(=O)(=O)c1ccc(N/C=C2\\C(=O)Nc3ccc4ncsc4c32)cc1", "units label": "%", "inhibition": -8.48}
{"smiles str": "COc1cc2c(cc1Nc1nc(Nc3ccsc3C(N)=O)c3cc[nH]c3n1)N(C(=O)CN(C)C)CCC2", "units label": "%", "inhibition": 11.2}
{"smiles str": "COc1cccc(-n2ncc3c(N/N=C/c4ccncc4)ncnc32)c1", "units label": "%", "inhibition": 9.95}

Noted inhibition for COc1cc(C=NNc2ncnc3c2cnn3Cc2ccccc2)ccc1O , tested on Tyrosine-protein kinase SYK (Homo sapiens) (UniProt P43405): -4.26

Noted inhibition for COc1cccc(COc2cc(-n3cnc4ccccc43)sc2C(N)=O)c1 , tested on Tyrosine-protein kinase SYK (Homo sapiens) (UniProt P43405): -4.12

Noted inhibition for CCn1c(-c2nonc2N)nc2c(C#CC(C)(C)O)ncc(OC[C@@H]3CCCN3)c21 , tested on Tyrosine-protein kinase SYK (Homo sapiens) (UniProt P43405): -4.11

Noted inhibition for CCn1c(-c2nonc2N)nc2c(C#CC(C)(C)O)ncc(OCC3CCNCC3)c21 , tested on Tyrosine-protein kinase SYK (Homo sapiens) (UniProt P43405): -0.6

Noted inhibition for NC(=O)c1sc(-n2cnc3cc(C(F)(F)F)ccc32)cc1OCc1ccccc1Br , tested on Tyrosine-protein kinase SYK (Homo sapiens) (UniProt P43405): 1.46
